targetDesc: pooled human IgG
// reported Enzyme Activity Endpoint Assay: scIgG for each item listed
quantityName: Enzyme Activity Endpoint Assay: scIgG (ng/µL)

1) PRT-4 (protein) MANQEIRYSEVTPYHVTSVWTKGVTPPANFTQGEDVFHAPYVANQGWYDITKTFNGKDDLLCGAATAGNMLHWWFDQNKEQIERYLKEHPEKQKINFNGEQMFDVKEAIDTKDSQLDSKLFEYFKEKAFPYLSTKHLGVFPDHVIDMFINGYRLSLTNHGPTPVKEGSKDPRGGIFDAVFTRGDQSKLLTSRHDFKEKNLKEISDLIKKELTEGKALALSHTYANVRINHVINLWGADFDSNGNLKAIYVTDSDSNASIGMKKYFVGVNSAGKVAISAKEIKEDNIGAQVLGLFTLSTGQDIWNQTN ... 42
2) PRT-20 (protein) MANQEIRYSEATPYHITSVWTKGVTPPANFTQGEDVFHAPYVPNQGWYDITKTFNGKDDLLCGAATAGNMLHWWFDQNKDQIERYLKEHPEKQKINFNGEQMFDVKEAIDTKDSQTDSKLFNYFKEKAFPYLSTKHLGVFPDHVLDMFINGYRLSLTNHGPTPVKEQSKDPRGGIFDAVFTRGDQSTLLTSRHDFKEKTLKEISDLIKKELQEGKALGISHTYANVRINHVINLWGADFNSEGNLEAIYVTDSDSNASIGMKKYYVGVNSAGKVAISAKEIEDDNIGAQVLGLFTLSTGKDIWEQTN ... 13
3) PRT-40 (protein) MANQEIRYSEVTPYHVTSVWTKGVTPPANFTQGEDVFHAPYVANQGWYDITKTFNGKDDLLCGAATAGNMLHWWFDQNKDQIKRYLEEHPEKQKINFNGEQMFDVKEAIDTKNHQLDSKLFEYFKEKAFPYLSTKHLGVFPDHVLDMFINGYRLSLTNHGPTPVKEGSKDPRGGIFDAVFTRGDQSKLLTSRHDFKEKNLKEISDLIKKELTEGKALGLSHTYANVRINHVINLWGADFDSNGNLKAIYVTDSDSNASIGMKKYFVGVNSAGKVAISAKEIKEDNIGAQVLGLFTLSTGQDSWNQTN ... 13
4) PRT-22 (protein) MANQEIRYSEVTPYHVTSVWTKGVTPPANFTQGEDVFHAPYVANQGWYDITKTFNGKDDLLCGAATAGNMLHWWFDQNKDQIERYLKEHPEKQKINFNGEQMFDVKEAIDTKNSQLDSKLFEYFKEKAFPYLSTKHLGVFPDHVIDMFINGYRLSLTNHGPTPVKEGSKDPRGGIFDAVFTRGDQSKLLTSRHDFKEKNLKEISDLIKKELTEGKALGLSHTYANVRINHVINLWGADFDSNGNLKAIYVTDSDSNASIGMKKYFVGVNSAGKVAISAKEIKEDNIGAQVLGLFTLSTGQDIWNQTN ... 23
5) PRT-52 (protein) MANQEIRYSEVTPYHVTSVWTKGVTPPANFTQGEDVFHAPYVANQGWYDINKTFNGGDDLLCGAATAGNMLHWWFDQNKEYIDRYLKEHPEKQKINFNGEQMFDVKEAIDTKNSQTDSKLFEYFKEKAFPYLSTKHLGVFPDLVIDMFINGYRLSLTNHGPTPVKEGSKDPRGGFFDAVFTRGDQSKLLTSRHDFKEKNYNEISDLIKKELKEGKALGLSHTYANVRINHVINLWGADFDSNGNLKAIYVTDSDSNASVGMKKYFVGVNSAGKVAISAKEIKEDNIGAQVLGLFTLSTGQDSWNQTN ... 0
6) PRT-12 (protein) MANQEIRYSEVTPYHVTSVWTKGVTPPADFTQGEDVFHAPYKANQGWYDITKTFNGKDDLLCGAATAGNMLHWWFDQNKDQIERYLKEHPEKQKINFNGEQMFDVKEAIDTKDSQTDSKLFEYFKEKAFPYLSTKHLGVFPDHVIDMFINGYRLSLTNHGPTPVKRGSKDPRGGFFDAVFTRGDQSKLLTSRHDFKEKTLNEISDLIKKELTEGKALGLSHTYANVRINHVINLWGADFDSNGNLEAIYVTDSDSNASIGMKKYFVGVNSAGKVAISAKEIKEDNIGAQVLGLFTLSTGQDIWEQTN ... 14
7) PRT-8 (protein) MANQEIRYSEVTPYHVTSVWTKGVTPPTNFTQGEDVFHAPYIANQGWYDITKTFNGKDDLLCGAATAGNMLHWWFDQNKDQIERYLKEHPEKQKINFNGEQMFDVKEAIDTKNSQLDSKLFEYFKEKAFPYLSTKHLGVFPDHVLDMFINGYRLSLTNHGPTPVKEGSKDPRGGIFDAVFTRGDQSKLLTSRHDFKEKNLKEISDLIKQELTEGKALGLSHTYANVRINHVINLWGADFDSNGNLEAIYVTDSDSNASIGMKKYFVGVNSAGKVAISAKEIKDDNIGAQVLGLFTLSTGQDIWNQTN ... 16
8) PRT-589 (protein) MRNQTTTYSEVTPSHITSVWTKGVTPPEQFIQGEDVFHAPYIANQGWYDITKTFNGKDDLLCGAATAGNMLHWWFDQNKEQIENYLKKHPEKQKINFNNEEMFDVREAINTKDSQTDSALFSYFKDKAFPYLSAKHLGVFPDHVIDMFINGYRLSLTNHDKTDVNRGTKDPRGGIFDAVFTRGDQSKLLTARHDFKNKTLKEISDLIKQELTEGKALGLSHTYANVRINHVINLWGADFDAEGNLEAIYVTDSDSNASIGMKKYYVGVNSAGKVAISAKKIEGDNIGAQVLGLFTLSTGQDIWQQTNLEHHHHHH ... 0
